Biological target: KRAS^G12D protein (Homo sapiens, UniProt P01116, G12D)
Construct: host or cells: Aspc-1 (AsPC-1) cells
Sequence (P01116 1-188 isoform P01116-2 G12D): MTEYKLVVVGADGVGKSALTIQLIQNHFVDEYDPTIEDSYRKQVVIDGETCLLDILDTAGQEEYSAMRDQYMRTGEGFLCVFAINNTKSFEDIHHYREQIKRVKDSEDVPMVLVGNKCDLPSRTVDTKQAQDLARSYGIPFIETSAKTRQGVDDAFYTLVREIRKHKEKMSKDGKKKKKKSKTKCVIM
Assay: Protein degradation study (western blot) in Aspc-1 cells
Format: cell-based
Details: ASPC1, 24 h, Aspc-1 cells treated with 50 nM compound, 24 hours; read-out: Rate of degradation
Property measured: inhibition at 0.05 µM

Example results:
>  <Molecule>
C#Cc1c(F)ccc2cc(O)cc(-c3ncc4c(N5CC6CCC(C5)N6)nc(OCC5(CN6CCC7(CC6)CC(C(=O)N6CCC(c8ccc9c(C%10CCC(=O)NC%10=O)nn(C)c9c8)CC6)C7)CC5)nc4c3F)c12 (stereo not shown) [Compound 28a]

>  <inhibition at 0.05 µM>
> 60%

$$$$
>  <Molecule>
C#Cc1c(F)ccc2cc(O)cc(-c3ncc4c(N5CC6CCC(C5)N6)nc(OCC5(CN6CCC7(CCC(C(=O)N8CCC(c9ccc%10c(C%11CCC(=O)NC%11=O)nn(C)c%10c9)CC8)CC7)CC6)CC5)nc4c3F)c12 (stereo not shown) [Compound 24a]

>  <inhibition at 0.05 µM>
31 to 60%

$$$$
>  <Molecule>
C#Cc1c(F)ccc2cccc(-c3ncc4c(N5CC6CCC(C5)N6)nc(OCC5(CN6CCC7(CC6)CC(N6CCC(c8ccc9c(C%10CCC(=O)NC%10=O)nn(C)c9c8)CC6)C7)CC5)nc4c3F)c12 (stereo not shown) [Compound 16a]

>  <inhibition at 0.05 µM>
> 60%

$$$$

For every item below, please supply its inhibition at 0.05 µM.
1. Nc1cc(Cl)c(C(F)(F)F)c(-c2ncc3c(N4CC5CCC(C4)N5)nc(OCC4(CN5CCC6(CC5)CC(N5CCC(c7cccc(N8CCC(=O)NC8=O)c7)CC5)C6)CC4)nc3c2F)c1 [Compound 19a]
2. C#Cc1c(F)ccc2cc(O)cc(-c3ncc4c(N5CC6CCC(C5)N6)nc(OCC5(CN6CC7(CC(CN8CCC(c9ccc%10c(C%11CCC(=O)NC%11=O)nn(C)c%10c9)CC8)C7)C6)CC5)nc4c3F)c12 (stereo not shown) [Compound 25a]
3. C#Cc1c(F)ccc2cc(O)cc(-c3ncc4c(N5CC6CCC(C5)N6)nc(OCC5(CN6CCC7(CC6)CC(N6CCC(c8ccc9c(N%10CCC(=O)NC%10=O)nn(C)c9c8)CC6)C7)CC5)nc4c3F)c12 [Compound 1a]
4. C#Cc1c(F)ccc2cc(O)cc(-c3ccc4c(N5CC6CCC(C5)N6)nc(OCC5(CN6CCC7(CC6)CC(N6CCC(c8ccc9c(C%10CCC(=O)NC%10=O)nn(C)c9c8)CC6)C7)CC5)nc4c3F)c12 (stereo not shown) [Compound 23a]

-- reply
["11 to 30%", "31 to 60%", "> 60%", "> 60%"]
